Attribution: the OligoGym collection

# MEASURED_ON: TMEM63B
# TEST_DETAILS: reporter assay of Huesken 2005
# EXPERIMENTAL_CONDITIONS: siRNA
Oligonucleotides are given in HELM: sugar(base)linkage, 5' to 3'; d 2'-deoxyribose, r ribose, m 2'-O-methylribose, p phosphate. ss, as = sense and antisense strand
PROPERTY_MEASURED: normalised inhibition (eCFP-eYFP dual reporter) (%)

1) RNA1{r(G)p.r(C)p.r(C)p.r(U)p.r(A)p.r(C)p.r(C)p.r(A)p.r(U)p.r(G)p.r(A)p.r(U)p.r(C)p.r(A)p.r(A)p.r(C)p.r(C)p.r(C)p.r(C)p.d(T)p.d(T)}|RNA2{r(G)p.r(G)p.r(G)p.r(G)p.r(U)p.r(U)p.r(G)p.r(A)p.r(U)p.r(C)p.r(A)p.r(U)p.r(G)p.r(G)p.r(U)p.r(A)p.r(G)p.r(G)p.r(C)p.d(A)p.d(C)}$$$RNA1{StrandType:ss}|RNA2{StrandType:as}$
39.6
2) RNA1{r(A)p.r(G)p.r(U)p.r(U)p.r(U)p.r(G)p.r(G)p.r(C)p.r(G)p.r(C)p.r(A)p.r(G)p.r(C)p.r(C)p.r(U)p.r(A)p.r(C)p.r(G)p.r(C)p.d(T)p.d(T)}|RNA2{r(G)p.r(C)p.r(G)p.r(U)p.r(A)p.r(G)p.r(G)p.r(C)p.r(U)p.r(G)p.r(C)p.r(G)p.r(C)p.r(C)p.r(A)p.r(A)p.r(A)p.r(C)p.r(U)p.d(G)p.d(G)}$$$RNA1{StrandType:ss}|RNA2{StrandType:as}$
60.9
3) RNA1{r(G)p.r(A)p.r(C)p.r(C)p.r(G)p.r(G)p.r(U)p.r(A)p.r(U)p.r(G)p.r(A)p.r(G)p.r(C)p.r(G)p.r(U)p.r(C)p.r(U)p.r(C)p.r(A)p.d(T)p.d(T)}|RNA2{r(U)p.r(G)p.r(A)p.r(G)p.r(A)p.r(C)p.r(G)p.r(C)p.r(U)p.r(C)p.r(A)p.r(U)p.r(A)p.r(C)p.r(C)p.r(G)p.r(G)p.r(U)p.r(C)p.d(A)p.d(T)}$$$RNA1{StrandType:ss}|RNA2{StrandType:as}$
99

---

# MEASURED_ON: UBE2V1
# TEST_DETAILS: reporter assay of Huesken 2005
# EXPERIMENTAL_CONDITIONS: siRNA
Oligonucleotides are written 5' to 3', each unit as a sugar letter and its base; * is a phosphorothioate linkage, no mark a phosphodiester; rarer units and linkages stand in square brackets, end groups in braces. Plain capitals give the bases only. d = 2'-deoxy (DNA); r = 2'-OH (RNA)
Would you mind labelling by normalised inhibition (eCFP-eYFP dual reporter)? At or over 90% is class 1, under is class 0.

1. sense rCrUrArGrArArArArUrUrUrCrArCrUrGrCrArAdTdT / antisense rUrUrGrCrArGrUrGrArArArUrUrUrUrCrUrArGdGdT
class 1
2. sense rUrCrArUrArUrArGrCrArUrCrArArArGrUrUrGdTdT / antisense rCrArArCrUrUrUrGrArUrGrCrUrArUrArUrGrAdAdT
class 0
3. sense rArGrArCrUrUrGrArArCrCrUrArGrArArArArUdTdT / antisense rArUrUrUrUrCrUrArGrGrUrUrCrArArGrUrCrUdTdC
class 0
4. sense rCrCrUrArArUrGrArUrGrUrCrUrArArArGrArAdTdT / antisense rUrUrCrUrUrUrArGrArCrArUrCrArUrUrArGrGdCdG
class 1
